Origin of the recorded values: PubChem BioAssay AID624323

- Test system: aqueous buffer solubility, pH 5.0/6.2/7.4
- EXPERIMENT DESCRIPTION: compound solubility, pH 5.0, 6.2, 7.4 – biophysical, set 2, ADME assay (AID 624323)
- TEST PARAMETERS: measured here: solubility at pH 6.2; at 100 µM; stronger effect = higher value
Short version: solubility at least 0.1 µg/mL is TRUE, less is FALSE.

Exam item: Answer whether solubility of "O=C(O)c1ccccc1OCc1ccccc1Br" is greater than or equal to 0.1 µg/mL.
Marked response: TRUE

Exam item: Would you mind doing "O=C1CCCC2=C1C1(CCCC1)N=C(Nc1nc3ccccc3o1)N2" as well?
Marked response: FALSE

Exam item: And what about the compound Brc1cc2c(cc1C1Nc3ccccc3C3C=CCC31)OCO2 (configuration not stated) ?
Marked response: FALSE

Exam item: What about this compound? "NC(=O)C1CCN(c2nc(-c3ccc(Br)cc3)cs2)CC1"
Marked response: TRUE

Exam item: And O=C1C2CC=CCC2C(=O)N1c1n[nH]c(-c2ccccc2)n1 (configuration not stated) ?
Marked response: TRUE

Exam item: Now consider "O=C(O)c1cccnc1SCCc1ccccc1" and answer again.
Marked response: TRUE

Exam item: Likewise for "N#Cc1ccccc1CSc1nc2ncc(Br)cc2[nH]1" ?
Marked response: TRUE

Exam item: Same for "COc1ccc(S(=O)(=O)n2nc(OC(=O)c3ccccc3)cc2N)cc1"
Marked response: TRUE

Exam item: Moving on to the next compound: "Cc1cc(-c2nnc3n2CCCCC3)c(C)n1-c1ccccc1"
Marked response: TRUE

Exam item: Next up: O=S(=O)(NC1CCCCC1N1CCOCC1)c1ccc(Cl)cc1 (configuration not stated)
Marked response: TRUE

Exam item: Then this compound: "Cc1cccc(-n2cnc3cc(C(=O)N4CCCCC4)ccc32)c1"
Marked response: TRUE

Exam item: Likewise for "Cc1cc(C)nc(-n2nc(C)c(Sc3ccc(F)cc3)c2N)n1" ?
Marked response: TRUE

----------
- Tested on: aqueous buffer solubility, pH 5.0/6.2/7.4
- EXPERIMENT DESCRIPTION: compound solubility, pH 5.0, 6.2, 7.4 – biophysical, set 2, ADME assay (AID 624323)
- TEST PARAMETERS: measured here: solubility at pH 5.0; at 100 µM; stronger effect = higher value
OUTCOME MEASURE: solubility (µg/mL)
Number only, in µg/mL; omit the unit.

Exam item: Short answer please: solubility, aqueous buffer solubility, pH 5.0/6.2/7.4, entry "Cc1ccc(NS(=O)(=O)c2ccc3c(c2)CCC(=O)N3)cc1C"
Marked response: 26.2

Exam item: Would you mind doing "O=c1[nH]c(SCc2ccc(Cl)cc2)nc2c1CCC2" as well?
Marked response: 0.45

Exam item: Thanks! And "O=C(O)c1ccc(N2C(=O)/C(=C/c3ccc(-c4ccc([N+](=O)[O-])cc4)o3)C=C2c2ccccc2)cc1" ?
Marked response: 0.59

Exam item: Try this compound next: "Cc1ccc(N2CCN(S(=O)(=O)N3CCCCC3)CC2)c(C)c1"
Marked response: 1.8

Exam item: Another: "Cc1ccc(NC(=O)CCC(=O)N/N=C/c2ccc([N+](=O)[O-])o2)cc1C"
Marked response: 0.19

Exam item: Subsequent entry: "COc1ccc(S(=O)(=O)n2nc(OC(=O)c3ccccc3)cc2N)cc1"
Marked response: 0.46

Exam item: Field entry: O=C1C2CC=CCC2C(=O)N1c1n[nH]c(-c2ccccc2)n1 (stereo not given)
Marked response: 16

----------
- System: aqueous buffer solubility, pH 5.0/6.2/7.4
- EXPERIMENT DESCRIPTION: compound solubility, pH 5.0, 6.2, 7.4 – biophysical, set 2, ADME assay (AID 624323)
- TEST PARAMETERS: at 100 µM
Activity calls are given as the source filed them. No rule for the calls is given here.
// allowed return values: active, inactive

Exam item: So what was the verdict on "COc1ccc(Sc2ccc(NC(=O)c3ccccc3Cl)cc2C#N)cc1" in this test?
Marked response: inactive

Exam item: Now give it for "CN(C)C1=C(Cl)C(=O)N(c2ccc(Cl)c(Cl)c2)C1=O" too.
Marked response: inactive

Exam item: Please do the same for "O=[N+]([O-])c1ccc(CN2CCOCCOCCN(Cc3ccc([N+](=O)[O-])cc3)CCOCC2)cc1" as well.
Marked response: active

Exam item: Item: "O=S1(=O)Nc2c(ccc3cccnc23)-c2ccccc21"
Marked response: inactive

Exam item: And then "C=CCn1c(SCC(=O)c2ccc(O)c(O)c2)nnc1-c1ccccc1OC" , what is it?
Marked response: active

Exam item: Also check "c1ccc(CC2CCN(c3ncnc4sccc34)CC2)cc1"
Marked response: inactive

Exam item: // next record "COc1cc(NC(=O)c2cc(C3CC3)on2)c(OC)cc1Cl"
Marked response: inactive

Exam item: Try "COc1cccc(-c2nc(-c3ccc(NC(=O)Cc4ccccc4OC)cc3)no2)c1" next.
Marked response: inactive

Exam item: Repeat with "Cc1ccc(-n2c(N)c(C#N)c(-c3ccccc3)c(C#N)c2=O)cc1"
Marked response: inactive

Exam item: Moving on to the next compound: O=C1C2CC=CCC2C(=O)N1c1n[nH]c(-c2ccccc2)n1 (configuration not stated)
Marked response: active

Exam item: Now try "CC(=O)c1ccc(N2CCN(S(=O)(=O)c3ccc4c(c3)CC(=O)N4)CC2)cc1" .
Marked response: inactive

Exam item: Try this compound too: CC(C)C(=O)NC(c1ccco1)c1ccc2cccnc2c1O (configuration not stated)
Marked response: inactive

Exam item: What about "O=C(c1ccccn1)N(Cc1cccs1)C1(C(=O)NC2CCCCC2)CCCCC1" ?
Marked response: active

Exam item: What do we get for "COc1ccccc1N(/N=C1\Sc2ccccc2C1=O)C(C)=O" ?
Marked response: inactive

Exam item: Next: "NC(=O)C1CCN(c2nc(-c3ccc(Br)cc3)cs2)CC1"
Marked response: inactive

Exam item: Request: "C/C=C/Cn1c(SCCCc2ccccc2)nc2c1c(=O)[nH]c(=O)n2C"
Marked response: inactive

Exam item: Item: "CC[C@H]1CN2CCc3cc(OC)c(OC)cc3[C@@H]2C[C@@H]1C[C@H]1NCCc2cc(OC)c(OC)cc21"
Marked response: active

Exam item: Also, "Cc1cc(C)n(-c2nc(NCCCO)c3c4c(sc3n2)CCCC4)n1" please.
Marked response: active

Exam item: Request: "CCCOc1ccc(-c2nc(OC)c3ccccc3n2)cc1"
Marked response: inactive

Exam item: Entry to check: "COc1ccc(CNCc2cccc3ccccc23)cc1"
Marked response: active

Exam item: Can you handle "COc1ccc(OC)c(-c2nnc3n2N=C(c2ccc(OC)c(OC)c2)CS3)c1" next?
Marked response: active

Exam item: What do we get for "Cc1cc(C(=O)CN2C(=O)CCC2=O)c(C)n1Cc1ccccc1" ?
Marked response: active

----------
- Test system: aqueous buffer solubility, pH 5.0/6.2/7.4
- EXPERIMENT DESCRIPTION: compound solubility, pH 5.0, 6.2, 7.4 – biophysical, set 2, ADME assay (AID 624323)
- TEST PARAMETERS: at 100 µM
Active and inactive are the calls of the source. The rule behind the calls is not given here.
Write down the outcome that applies. Available outcomes: active, inactive

Exam item: Give the logged outcome of this assay for the following compound: "Brc1ccc2c(c1)CN1CCCC1=N2"
Marked response: active

Exam item: Can you handle "CCCN(CCC)CCNC(=O)C1CCN(Cc2nc(-c3ccc(Cl)cc3)oc2C)CC1" next?
Marked response: active

Exam item: How about this compound: "N#C/C(=C\c1ccc([N+](=O)[O-])o1)c1nc2ccccc2[nH]1"
Marked response: inactive

Exam item: Now consider O=c1[nH]c2c(s1)C(c1cccnc1)C1C3CCC(C3)C1S2 (stereo unspecified) and answer again.
Marked response: active

Exam item: Would you kindly repeat that for "CCOc1ccc(-c2nc(-c3ccncc3)no2)cc1OCC" ?
Marked response: inactive

Exam item: Please answer likewise for "Cn1nnnc1Sc1ncnc2scc(-c3ccccc3)c12"
Marked response: inactive

----------
Answer each item with its documented solubility.
- Test system: aqueous buffer solubility, pH 5.0/6.2/7.4
- EXPERIMENT DESCRIPTION: compound solubility, pH 5.0, 6.2, 7.4 – biophysical, set 2, ADME assay (AID 624323)
- TEST PARAMETERS: measured here: solubility at pH 6.2; at 100 µM; stronger effect = higher value

Exam item: # query: solubility | item CC1CCCN(C(C(=O)Nc2ccc3c(c2)OCCO3)c2ccccc2)C1 (configuration not stated) | system: aqueous buffer solubility, pH 5.0/6.2/7.4
Marked response: > 36 µg/mL

Exam item: Also, "COc1ccc(CSc2nc(C)cc(=O)[nH]2)cc1" please.
Marked response: > 26 µg/mL

Exam item: Same lookup for "Oc1cc(O)cc(/C=C/c2ccc(O)c(O)c2)c1" , please.
Marked response: > 24 µg/mL

Exam item: Then what about the compound CCN1CCN(c2nc3ccccc3nc2C(C#N)C(=O)OC2CCCCC2)CC1 (configuration not stated) ?
Marked response: > 40 µg/mL

Exam item: Same again, this time with "O=C(CSc1cccc2cccnc12)N1CCCC1"
Marked response: > 27 µg/mL

Exam item: Entry "Cc1ccccc1N1CCN(c2ncnc3c2cnn3Cc2ccc(Cl)cc2)CC1" please
Marked response: < 0.01 µg/mL

Exam item: Another compound to check: "CN(C)c1oc(-c2ccc(OCc3ccc(Cl)cc3)cc2)nc1C#N"
Marked response: < 0.01 µg/mL

Exam item: Another compound to look at: "Cc1ccc(NS(=O)(=O)c2ccc3c(c2)CCC(=O)N3)cc1C"
Marked response: > 33 µg/mL

Exam item: Another compound to check: "COc1ccc(CNCc2cccc3ccccc23)cc1"
Marked response: > 36 µg/mL

Exam item: Next compound up: "CCCC(=O)Nc1cccc(NC(=O)c2ccccc2Br)c1"
Marked response: > 36 µg/mL

Exam item: And then "Cn1cnc([N+](=O)[O-])c1Sc1ncnc2nc[nH]c12" , what is it?
Marked response: > 27 µg/mL

Exam item: Another compound: "CCCN(CCC)CCNC(=O)C1CCN(Cc2nc(-c3ccc(Cl)cc3)oc2C)CC1"
Marked response: > 46 µg/mL

Exam item: Ok, now O=C(O)CCC(NS(=O)(=O)c1ccc(-c2ccccc2)cc1)C(=O)O (configuration not stated)
Marked response: > 36 µg/mL

Exam item: Also, "Cc1ccc(C(=O)n2c3ccccc3c3ccccc32)cc1" please.
Marked response: < 0.01 µg/mL

Exam item: Same for "O=[N+]([O-])c1ccc(CN2CCOCCOCCN(Cc3ccc([N+](=O)[O-])cc3)CCOCC2)cc1"
Marked response: > 48 µg/mL

Exam item: Ok, now "O=C1NCCCc2c1oc1ccc(O)cc21"
Marked response: > 22 µg/mL

Exam item: What about "CCCN1CNc2c(c(=O)[nH]c(=S)n2CCc2ccc(OC)c(OC)c2)C1" ?
Marked response: > 39 µg/mL
